# System: Staphylococcus aureus
# Assay text: Antimicrobial activity against Staphylococcus aureus at 200 ug after 24 hrs by agar disc diffusion method
# Type: functional
# Condition info: read-out: DIZ
Each record here notes measured zone of inhibition at 200 µg/disc.

smiles_structure=O=C(O)c1cccnc1Sc1nc2ccc(Cl)cc2c(=O)n1Cc1ccccc1 system_tested="Staphylococcus aureus" assay_endpoint="zone of inhibition at 200 µg/disc" result_value="14 mm"
smiles_structure=Cc1ccc2nc(Sc3ncccc3C(=O)O)n(-c3ccccc3)c(=O)c2c1 system_tested="Staphylococcus aureus" assay_endpoint="zone of inhibition at 200 µg/disc" result_value="20 mm"
smiles_structure=CCOC(=O)c1nc(N)sc1Sc1nc2ccc(Cl)cc2c(=O)n1-c1ccccc1 system_tested="Staphylococcus aureus" assay_endpoint="zone of inhibition at 200 µg/disc" result_value="8 mm"
smiles_structure=O=C(O)c1cccnc1Sc1nc2ccc(Cl)cc2c(=O)n1-c1ccccc1 system_tested="Staphylococcus aureus" assay_endpoint="zone of inhibition at 200 µg/disc" result_value="15 mm"

# ---- query compound ----
Fill in reported zone of inhibition at 200 µg/disc for this entry: `Cc1ccc2nc(Sc3cnc(N)s3)n(Cc3ccccc3)c(=O)c2c1`
8 mm
